molecular target: hDPP-IV (Homo sapiens)
Sequence (P27487 whole entry): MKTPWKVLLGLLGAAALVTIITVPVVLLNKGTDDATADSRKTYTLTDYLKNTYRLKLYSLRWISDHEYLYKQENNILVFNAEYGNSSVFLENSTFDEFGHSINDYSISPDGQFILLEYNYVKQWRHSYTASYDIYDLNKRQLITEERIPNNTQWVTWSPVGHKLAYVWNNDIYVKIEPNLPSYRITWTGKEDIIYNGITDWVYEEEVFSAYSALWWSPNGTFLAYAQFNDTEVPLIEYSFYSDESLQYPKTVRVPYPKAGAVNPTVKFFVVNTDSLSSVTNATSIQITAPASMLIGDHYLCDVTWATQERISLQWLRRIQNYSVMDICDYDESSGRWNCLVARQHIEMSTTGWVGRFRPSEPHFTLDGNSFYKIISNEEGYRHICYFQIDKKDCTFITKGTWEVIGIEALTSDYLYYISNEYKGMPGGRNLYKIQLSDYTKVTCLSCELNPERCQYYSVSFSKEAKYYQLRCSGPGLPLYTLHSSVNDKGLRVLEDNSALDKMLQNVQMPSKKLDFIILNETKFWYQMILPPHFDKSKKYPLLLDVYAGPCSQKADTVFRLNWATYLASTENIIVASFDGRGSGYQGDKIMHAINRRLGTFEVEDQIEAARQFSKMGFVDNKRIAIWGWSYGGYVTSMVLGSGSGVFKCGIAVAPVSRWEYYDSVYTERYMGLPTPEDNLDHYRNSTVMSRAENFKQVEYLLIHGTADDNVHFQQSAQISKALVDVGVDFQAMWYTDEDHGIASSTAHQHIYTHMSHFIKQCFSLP
Peptide text beside a SMILES is read from it.

# Compound, IC50
rows = [
    ("C[C@@H](O)[C@H](NC(=O)[C@H](CCCNC(=N)N)NC(=O)[C@@H](N)Cc1c[nH]c2ccccc12)C(=O)O [WRT] (H-Trp-Arg-Thr-OH)", "556 µM"),
    ("CSCC[C@H](NC(=O)[C@H](C)NC(=O)[C@@H](N)Cc1c[nH]c2ccccc12)C(=O)O [WAM] (H-Trp-Ala-Met-OH)", "330 µM"),
    ("C[C@H](NC(=O)[C@@H](N)Cc1c[nH]c2ccccc12)C(=O)N[C@@H](CC(=O)O)C(=O)O [WAD] (H-Trp-Ala-Asp-OH)", "433 µM"),
    ("N=C(N)NCCC[C@H](NC(=O)[C@@H](N)Cc1c[nH]c2ccccc12)C(=O)N[C@@H](Cc1ccccc1)C(=O)O [WRF] (H-Trp-Arg-Phe-OH)", "257 µM"),
    ("N[C@@H](Cc1c[nH]c2ccccc12)C(=O)N1CCC[C@H]1C(=O)N[C@@H](Cc1c[nH]cn1)C(=O)O [WPH] (H-Trp-Pro-His-OH)", "315 µM"),
    ("CSCC[C@H](NC(=O)[C@H](CCCNC(=N)N)NC(=O)[C@@H](N)Cc1c[nH]c2ccccc12)C(=O)O [WRM] (H-Trp-Arg-Met-OH)", "897 µM"),
]

Source: paper PMC10601436
